# System: UniProt:P17931
# Method description: Competitive binding assay: biotinylated hGal-3 binding to microplate-adsorbed asialofetuin (ASF)
# Stated conditions: Activity on hGal-3; mean values of several measurements; mixture of diastereomers measured where not separated
pIC50: −log10 of the molar value.
In this section we review reported pIC50 values for a set of compounds.

# Record smiles, pIC50
measured = [
    ("CO[C@@H]1[C@@H](n2cc(-c3cc(F)c(F)c(F)c3)nn2)[C@@H](O)[C@@H](CO)O[C@H]1C(=O)N(c1cccc(Cl)c1)[C@H]1COC[C@@H]1O", 6.99),
    ("CO[C@@H]1[C@@H](n2cc(-c3cc(F)c(Cl)c(F)c3)nn2)[C@@H](O)[C@@H](CO)O[C@H]1C(=O)N(c1cc(Cl)cc(Cl)c1)[C@H]1COC[C@@H]1O", 7.30),
    ("CO[C@@H]1[C@@H](n2cc(-c3cc(F)c(F)c(F)c3)nn2)[C@@H](O)[C@@H](CO)O[C@H]1C(=O)N(c1cc(Cl)cc(Cl)c1)[C@@H]1CNC[C@H]1O", 6.74),
    ("CO[C@@H]1[C@@H](n2cc(-c3ccc(Cl)c(Cl)c3)nn2)[C@@H](O)[C@@H](CO)O[C@H]1C(=O)N(c1cc(C)cc(Br)c1)[C@H]1COC[C@@H]1O", 6.82),
    ("CO[C@@H]1[C@@H](n2cc(-c3cc(F)c(F)c(F)c3)nn2)[C@@H](O)[C@@H](CO)O[C@H]1C(=O)N(c1cc(Br)cc(C#N)c1)[C@@H]1CN(C=O)C[C@H]1O", 7.10),
]

---

# System: human Gal-3 (hGal-3) (Homo sapiens (Human), UniProt P17931)
# Sequence (P17931 whole entry): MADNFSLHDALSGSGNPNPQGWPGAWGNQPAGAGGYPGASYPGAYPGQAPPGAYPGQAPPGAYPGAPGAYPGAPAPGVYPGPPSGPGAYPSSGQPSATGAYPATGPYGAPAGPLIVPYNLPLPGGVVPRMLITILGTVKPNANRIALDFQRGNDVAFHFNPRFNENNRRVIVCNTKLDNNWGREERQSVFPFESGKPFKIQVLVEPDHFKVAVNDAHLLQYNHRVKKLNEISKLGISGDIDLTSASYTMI
# Method description: Competitive binding assay: biotinylated hGal-3 binding to microplate-adsorbed asialofetuin (ASF)
# Stated conditions: Activity on hGal-3; mean values of several measurements; mixture of diastereomers measured where not separated
pIC50: −log10 of the molar value.
In this section we review reported pIC50 values for a set of molecules.

# Molecule, pIC50
measured = [
    ("CO[C@@H]1[C@@H](n2cc(-c3ccc(Br)c(F)c3F)nn2)[C@@H](O)[C@@H](CO)O[C@H]1C(=O)N(c1cc(Cl)cc(Cl)c1)[C@H]1CN(C=O)C[C@@H]1O [Example 91]", 7.70),
    ("CO[C@@H]1[C@@H](n2cc(-c3ccc(Cl)c(Cl)c3)nn2)[C@@H](O)[C@@H](CO)O[C@H]1C(=O)N(c1cc(Br)cc(C#N)c1)[C@H]1COC[C@@H]1O [Example 28]", 6.94),
    ("CO[C@@H]1[C@@H](n2cc(-c3cc(F)c(C)c(F)c3)nn2)[C@@H](O)[C@@H](CO)O[C@H]1C(=O)N(c1cc(Br)cc(C#N)c1)[C@H]1COC[C@@H]1O [Example 17]", 7.18),
    ("CO[C@@H]1[C@@H](n2cc(-c3cc(F)c(F)c(F)c3)nn2)[C@@H](O)[C@@H](CO)O[C@H]1C(=O)N(c1cc(C)cc(Br)c1)[C@H]1CN(C=O)C[C@@H]1O [Example 90]", 7.70),
    ("CO[C@@H]1[C@@H](n2cc(-c3cc(F)c(F)c(F)c3)nn2)[C@@H](O)[C@@H](CO)O[C@H]1C(=O)N(c1cc(Cl)cc(Cl)c1)[C@@H]1CN(C(C)=O)C[C@H]1O [Example 77]", 7.10),
    ("CO[C@@H]1[C@@H](n2cc(-c3ccc(C)c(F)c3F)nn2)[C@@H](O)[C@@H](CO)O[C@H]1C(=O)N(c1cc(Cl)cc(Cl)c1)[C@H]1COC[C@@H]1O [Example 19]", 7.40),
    ("CO[C@@H]1[C@@H](n2cc(-c3cc(F)c(F)c(F)c3)nn2)[C@@H](O)[C@@H](CO)O[C@H]1C(=O)N(c1cc(Br)cc(C#N)c1)[C@H]1CCOC[C@@H]1O [Example 101]", 7.85),
    ("CO[C@@H]1[C@@H](n2cc(-c3cc(F)c(F)c(F)c3)nn2)[C@@H](O)[C@@H](CO)O[C@H]1C(=O)N(c1cc(Cl)cc(Cl)c1)[C@@H]1CCOC[C@H]1O [Example 103]", 6.52),
    ("CO[C@@H]1[C@@H](n2cc(-c3ccc(Br)c(F)c3F)nn2)[C@@H](O)[C@@H](CO)O[C@H]1C(=O)N(c1cc(Cl)cc(Cl)c1)[C@@H]1COC[C@H]1O [Example 41]", 7.20),
    ("CO[C@@H]1[C@@H](n2cc(-c3ccc(C)c(F)c3F)nn2)[C@@H](O)[C@@H](CO)O[C@H]1C(=O)N(c1cc(Cl)cc(Cl)c1)[C@H]1CNC[C@@H]1O [Example 63]", 7.62),
    ("CO[C@@H]1[C@@H](n2cc(-c3cc(F)c(F)c(F)c3)nn2)[C@@H](O)[C@@H](CO)O[C@H]1C(=O)N(c1cc(Cl)cc(Cl)c1)[C@H]1COCC[C@@H]1O [Example 105]", 7.74),
    ("CCN1C[C@H](O)[C@@H](N(C(=O)[C@@H]2O[C@H](CO)[C@H](O)[C@H](n3cc(-c4cc(F)c(F)c(F)c4)nn3)[C@H]2OC)c2cc(C)cc(Br)c2)C1 [Example 97]", 7.62),
    ("CO[C@@H]1[C@@H](n2cc(-c3ccc(C)c(F)c3F)nn2)[C@@H](O)[C@@H](CO)O[C@H]1C(=O)N(c1cc(C)cc(Br)c1)[C@@H]1COC[C@H]1O [Example 50]", 7.47),
    ("CO[C@@H]1[C@@H](n2cc(-c3cc(F)c(C)c(F)c3)nn2)[C@@H](O)[C@@H](CO)O[C@H]1C(=O)N(c1cc(Cl)cc(Cl)c1)[C@H]1COC[C@@H]1O [Example 15]", 7.42),
    ("CO[C@@H]1[C@@H](n2cc(-c3ccc(C)c(F)c3F)nn2)[C@@H](O)[C@@H](CO)O[C@H]1C(=O)N(c1cc(Cl)cc(Cl)c1)[C@@H]1COC[C@H]1O [Example 48]", 7.54),
    ("CO[C@@H]1[C@@H](n2cc(-c3cc(F)c(F)c(F)c3)nn2)[C@@H](O)[C@@H](CO)O[C@H]1C(=O)N(c1cc(Br)cc(C#N)c1)[C@@H]1CN(C(C)=O)C[C@H]1O [Example 78]", 7.15),
    ("CO[C@@H]1[C@@H](n2cc(-c3ccc(C)c(F)c3F)nn2)[C@@H](O)[C@@H](CO)O[C@H]1C(=O)N(c1cc(C)cc(Br)c1)[C@@H]1CN(C=O)C[C@H]1O [Example 95]", 7.40),
    ("CO[C@@H]1[C@@H](n2cc(-c3cc(F)c(F)c(F)c3)nn2)[C@@H](O)[C@@H](CO)O[C@H]1C(=O)N(c1cc(C)cc(C#N)c1)[C@@H]1COC[C@H]1O [Example 39]", 7.16),
    ("CO[C@@H]1[C@@H](n2cc(-c3cc(F)c(F)c(F)c3)nn2)[C@@H](O)[C@@H](CO)O[C@H]1C(=O)N(c1cccc(I)c1)[C@@H]1COC[C@H]1O [Example 32]", 6.89),
    ("CO[C@@H]1[C@@H](n2cc(-c3cc(F)c(Cl)c(F)c3)nn2)[C@@H](O)[C@@H](CO)O[C@H]1C(=O)N(c1cc(C)cc(Br)c1)[C@H]1COC[C@@H]1O [Example 25]", 7.51),
]

---

# System: UniProtKB P17931
# Method description: Competitive binding assay: biotinylated hGal-3 binding to microplate-adsorbed asialofetuin (ASF)
# Stated conditions: Activity on hGal-3; mean values of several measurements; mixture of diastereomers measured where not separated

# Record smiles, System, IC50 [nM]
measured = [
    ("CO[C@@H]1[C@@H](n2cc(-c3cc(F)c(F)c(F)c3)nn2)[C@@H](O)[C@@H](CO)O[C@H]1C(=O)N(c1cc(Cl)cc(Cl)c1)[C@@H]1COC[C@H]1O", "UniProtKB P17931", 104),
    ("CO[C@@H]1[C@@H](n2cc(-c3cc(F)c(F)c(F)c3)nn2)[C@@H](O)[C@@H](CO)O[C@H]1C(=O)N(c1cc(Cl)cc(Cl)c1)[C@@H]1COCC[C@H]1O", "UniProtKB P17931", 217),
    ("CO[C@@H]1[C@@H](n2cc(-c3cc(F)c(F)c(F)c3)nn2)[C@@H](O)[C@@H](CO)O[C@H]1C(=O)N(c1cc(C)cc(Br)c1)[C@H]1COCC[C@@H]1O", "UniProtKB P17931", 13),
    ("CO[C@@H]1[C@@H](n2cc(-c3cc(F)c(F)c(F)c3)nn2)[C@@H](O)[C@@H](CO)O[C@H]1C(=O)N(c1cccc(Cl)c1)[C@@H]1COC[C@H]1O", "UniProtKB P17931", 235),
]

The reported numbers originate from patent US20240124427A1.
